# maps each entry to its Population Normal (%)
- Test system: HEK-293T
- assay_procedure: Multiplex assay against HEK293T
- Format: toxicity, cell-based
- condition_notes: human, 24 h, 10 µM, compound concentration 10 uM, replicate 1

compound	readout_unit	Population Normal (%)
NC(=O)c1cccc(-c2cc(Nc3ccc(OC(F)(F)F)cc3)ncn2)c1	%	88
Cl.Oc1ccc2c3c1O[C@H]1c4[nH]c5c(c4C[C@@]4(O)[C@@H](C2)N(CC2CC2)CC[C@]314)C[C@@]1(O)[C@H]2Cc3ccc(O)c4c3[C@@]1(CCN2CC1CC1)[C@H]5O4	%	92
CCc1cccc(CC)c1NC(=O)c1nn(C)c2c1CCc1cnc(Nc3ccc(N4CCN(C)CC4)cc3OC)nc1-2	%	91
CN1CCC(=C2c3ccccc3CC(=O)c3sccc32)CC1.O=C(O)/C=C/C(=O)O [KETOTIFEN FUMARATE]	%	88
CCc1cccc(CC)c1NC(=O)c1nn(C)c2c1CCc1cnc(Nc3ccc(C(=O)NC4CCN(C)CC4)cc3OC(F)(F)F)nc1-2	%	89

meta.source: ChEMBL document CHEMBL4689842
